Values from ChEMBL document CHEMBL4382240

experimental system: Amyloid-beta precursor protein (Homo sapiens, UniProt P05067)
Sequence (P05067 whole entry): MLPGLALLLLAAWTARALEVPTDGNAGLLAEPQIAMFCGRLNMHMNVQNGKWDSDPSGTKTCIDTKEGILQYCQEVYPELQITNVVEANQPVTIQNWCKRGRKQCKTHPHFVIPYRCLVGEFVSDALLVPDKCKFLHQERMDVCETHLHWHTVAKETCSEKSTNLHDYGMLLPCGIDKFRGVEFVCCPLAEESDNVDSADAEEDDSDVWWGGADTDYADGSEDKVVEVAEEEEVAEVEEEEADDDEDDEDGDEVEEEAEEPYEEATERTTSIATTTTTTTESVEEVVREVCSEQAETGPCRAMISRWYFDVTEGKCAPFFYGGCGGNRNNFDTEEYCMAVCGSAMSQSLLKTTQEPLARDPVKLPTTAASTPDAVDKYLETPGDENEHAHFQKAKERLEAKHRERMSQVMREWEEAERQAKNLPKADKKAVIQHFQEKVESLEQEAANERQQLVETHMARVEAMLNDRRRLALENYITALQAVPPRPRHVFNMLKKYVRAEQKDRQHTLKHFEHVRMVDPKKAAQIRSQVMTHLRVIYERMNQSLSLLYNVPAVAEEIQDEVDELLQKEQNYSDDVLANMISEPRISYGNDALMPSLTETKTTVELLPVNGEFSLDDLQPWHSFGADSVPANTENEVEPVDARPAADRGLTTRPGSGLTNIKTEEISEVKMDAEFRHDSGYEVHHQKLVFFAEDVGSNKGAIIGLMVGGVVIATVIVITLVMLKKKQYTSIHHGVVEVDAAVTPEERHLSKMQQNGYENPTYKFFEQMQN
test description: Inhibition of human amyloid beta (1 to 42) self-induced aggregation at 25 uM after 24 hrs by Thioflavin T based fluorometric assay relative to control
This listing pairs molecules with measured inhibition.
Please respond with the number in % and leave the unit unwritten.

// worked examples, inhibition included
CCN(CCCCCCNC(=O)c1cc(O)c(C(=O)NCCCCCCN(CC)Cc2ccccc2OC)cc1O)Cc1ccccc1OC 99.6
CCOC(=O)c1cc(O)c(C(=O)OCC)cc1O 6.5
CCN(CCCNC(=O)c1cc(O)c(C(=O)NCCCN(CC)Cc2ccccc2OC)cc1O)Cc1ccccc1OC 98.2
O=C(NCCCCN1CCOc2ccccc2C1)c1cc(O)c(C(=O)NCCCCN2CCOc3ccccc3C2)cc1O 71.6
CCN(CCCCNC(=O)c1cc(O)c(C(=O)NCCCCN(CC)Cc2ccccc2)cc1O)Cc1ccccc1 88
CCN(CCCCNC(=O)c1cc(O)c(C(=O)NCCCCN(CC)Cc2ccccc2OC)cc1O)Cc1ccccc1OC 96.2
CCN(CCCCCCNC(=O)c1cc(O)c(C(=O)NCCCCCCN(CC)Cc2ccccc2)cc1O)Cc1ccccc1 91.4

[in] Query: inhibition; subject: CCN(CCCCNC(=O)c1cc(O)c(C(=O)NCCCCN(CC)Cc2ccc(N(C)C)cc2)cc1O)Cc1ccc(N(C)C)cc1
[out] 99.9
